Experimental Target: full-length human PRMT8 isoform 1 (Homo sapiens)
Sequence (Q9NR22 whole entry, canonical isoform): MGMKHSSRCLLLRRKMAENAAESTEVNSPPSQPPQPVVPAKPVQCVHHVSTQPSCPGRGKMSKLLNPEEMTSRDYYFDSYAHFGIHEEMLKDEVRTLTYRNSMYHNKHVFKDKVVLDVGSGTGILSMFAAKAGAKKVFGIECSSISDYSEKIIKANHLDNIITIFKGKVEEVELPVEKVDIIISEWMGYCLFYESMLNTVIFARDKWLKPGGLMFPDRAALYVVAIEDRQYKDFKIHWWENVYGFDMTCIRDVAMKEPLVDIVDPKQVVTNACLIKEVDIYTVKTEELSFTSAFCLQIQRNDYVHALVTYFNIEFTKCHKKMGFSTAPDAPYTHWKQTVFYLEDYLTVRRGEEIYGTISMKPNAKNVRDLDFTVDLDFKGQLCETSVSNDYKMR
Test Summary: PRMT8 Biochemical Assay (3H-SAM Flashplate, peptide substrate)
Condition: single experiment or average of multiple experiments; read-out: Biochemical IC50 PRMT8
pIC50: −log10 of the molar value. Structures can show the parent of a compound that is named as a salt.
Test Readout: pIC50

Consider the reported pIC50 for these molecules:
{"columns": ["Molecule", "pIC50"],
 "data": [
  ["CNCCN(C)Cc1c[nH]nc1[C@H]1CC[C@@H](O)CC1 [Compound 217, trifluoroacetate]", 7.23],
  ["CNCCN(C)Cc1c[nH]nc1C1CCC(N(CC(C)C)C(=O)CC2CCOCC2)CC1 (stereo not shown)", 6.47],
  ["CNCCN(C)Cc1c[nH]nc1C1CCC(C)(C)[C@H](OCCCOC)C1 (stereo partly shown)", 7.59],
  ["CNCCN(C)Cc1c[nH]nc1C1CCC2(CCCCC2)OC1 (stereo not shown)", 7.70]
]}

a. CNCCN(C)Cc1c[nH]nc1[C@H]1CC[C@@H](C(=O)N(C)CC(C)C)CC1
b. CNCCN(C)Cc1c[nH]nc1C1CCC2(CCC(C)(C)CC2)OC1 (stereo not shown)
c. COC/C=C/c1n[nH]cc1CN(C)CCN
-- ask Please put the entries in order of rising pIC50. Order the labels as requested and give them as your answer.
-- reply c, a, b
(c: 5.64, a: 7.64, b: 7.87)

====

Experimental Target: full-length human PRMT8 isoform 1 (Homo sapiens)
Test Summary: PRMT8 Biochemical Assay (3H-SAM Flashplate, peptide substrate)
Condition: single experiment or average of multiple experiments; read-out: Biochemical IC50 PRMT8
Test Readout: IC50 (nM)

{"columns": ["Molecule", "IC50 [nM]"],
 "data": [
  ["CNCCN(C)Cc1c[nH]nc1[C@H]1CC[C@H](C(=O)NCCOc2ccccc2)CC1 [Compound 211]", 10],
  ["CNCCN(C)Cc1c[nH]nc1[C@H]1CC[C@]2(CCN(Cc3ccccc3)C2=O)CC1 [Compound 128]", 8.2]
]}

P. CNCCN(C)Cc1c[nH]nc1[C@H]1CC[C@@]2(CCC(C)(C)O2)CC1 [Compound 260]
Q. CNCCN(C)Cc1c[nH]nc1[C@H]1CC[C@H](OCCOc2ccc(OCCOC)cc2)CC1 [Compound 116]
R. CNCCN(C)Cc1c[nH]nc1[C@H]1CC[C@H](N(CCC(C)C)C(=O)CCCOC)CC1 [Compound 238]
S. CNCCN(C)Cc1c[nH]nc1C#Cc1cccc(OC)c1 [Compound 1]
-- ask Could you please sort these 4 entries by IC50 from high to low? Answer by listing the labels in the order asked for.
-- reply S, R, P, Q
(S: 390 nM, R: 80.1 nM, P: 37.3 nM, Q: 11.8 nM)

====

Experimental Target: UniProtKB Q96LA8
Test Summary: PRMT6 Biochemical Assay (3H-SAM Flashplate, peptide substrate)
Condition: single experiment or average of multiple experiments; read-out: Biochemical IC50 PRMT6
pIC50: −log10 of the molar value.
Test Readout: pIC50

{"columns": ["Compound", "Experimental Target", "pIC50"],
 "data": [
  ["CNCCN(C)Cc1c[nH]nc1[C@H]1CC[C@@H](N(CCOc2ccccc2)C(=O)CCCOC)CC1", "UniProtKB Q96LA8", 7.73],
  ["CNCCN(C)Cc1c[nH]nc1[C@H]1CC[C@@H](N(CCOC)C(=O)CCC(C)C)CC1", "UniProtKB Q96LA8", 7.50],
  ["CNCCN(C)Cc1c[nH]nc1[C@H]1CC[C@@H](C(C)C)CC1", "UniProtKB Q96LA8", 7.55],
  ["CCCc1n[nH]cc1CN(C)CCN", "UniProtKB Q96LA8", 6.54]
]}

a. CNCCN(C)Cc1c[nH]nc1[C@H]1CC[C@H](N(CCOC)C(=O)CCOc2ccccc2)CC1
b. CNCCN(C)Cc1c[nH]nc1[C@H]1CC[C@@H](N(CCCOC)C(=O)CCC(C)C)CC1
-- ask Which value of pIC50 is greater, the one for a or the one for b ? Return value: the label identifying the chosen record.
-- reply a
(a: 7.64, b: 7.26)

a. CNCCN(C)Cc1c[nH]nc1C1CCC(C)(C)[C@H](OCC2CCOCC2)C1 (some centres unmarked)
b. CN(CCN)Cc1c[nH]nc1C1=CCCC1
-- ask Of the two listed items, which has the higher pIC50? First: a Second: b Give the chosen item's label as your response.
-- reply a

P. CCOCC1CC(c2n[nH]cc2CN(C)CCNC)CCC1(C)C (centres unmarked)
Q. CNCCN(C)Cc1c[nH]nc1C1CCC(COCCOC)(COCCOC)CC1
-- ask So which one has the bigger pIC50 here, P or Q ? To answer, give the label that identifies your chosen option.
-- reply P
(P: 7.18, Q: 6.81)

1. CNCCN(C)Cc1c[nH]nc1/C=C/c1ccc(C(F)(F)F)cc1
2. CNCCN(C)Cc1c[nH]nc1[C@H]1CC[C@H](C(=O)N(CCCOC)CCC(C)C)CC1
3. CNCCN(C)Cc1c[nH]nc1C1CCC(C)(C)C(C(=O)NCc2ccccc2)C1 (centres unmarked)
4. CNCCN(C)Cc1c[nH]nc1[C@H]1CC[C@@]2(CCN(Cc3cc(F)cc(F)c3)C2=O)CC1
-- ask Rank entries according to their pIC50, from the largest number down. Response format: the labels, sorted as the prompt asks.
-- reply 4, 1, 3, 2

====

Experimental Target: full-length human PRMT6 (Flag- and His-tagged) (Homo sapiens)
Sequence (Q96LA8 with tags, fused parts or gaps): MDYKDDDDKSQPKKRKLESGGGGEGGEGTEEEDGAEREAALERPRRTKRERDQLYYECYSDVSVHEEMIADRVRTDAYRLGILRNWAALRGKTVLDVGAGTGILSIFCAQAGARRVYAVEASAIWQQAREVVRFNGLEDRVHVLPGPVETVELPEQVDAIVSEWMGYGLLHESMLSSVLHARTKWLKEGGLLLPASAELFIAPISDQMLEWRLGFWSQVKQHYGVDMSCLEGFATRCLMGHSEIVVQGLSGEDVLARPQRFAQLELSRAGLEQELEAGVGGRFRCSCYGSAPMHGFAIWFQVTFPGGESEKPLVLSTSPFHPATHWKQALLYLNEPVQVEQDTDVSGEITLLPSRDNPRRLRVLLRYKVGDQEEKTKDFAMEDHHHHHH
Test Summary: PRMT6 Biochemical Assay (3H-SAM Flashplate, peptide substrate)
Condition: read-out: Biochemical IC50 PRMT6
Structures can show the parent of a compound that is named as a salt.
Test Readout: IC50

{"columns": ["Compound", "IC50"],
 "data": [
  ["CNCCN(C)Cc1c[nH]nc1C1CCC(OCCOc2ccccc2)CC1 (centres unmarked)", "< 0.1 µM"],
  ["CCN(C(=O)CCOc1ccccc1)[C@H]1CC[C@H](c2n[nH]cc2CN(C)CCNC)CC1", "< 0.1 µM"],
  ["CNCCN(C)Cc1c[nH]nc1[C@H]1CC[C@]2(CCOC2(C)C)CC1", "< 0.1 µM"],
  ["CNCCN(C)Cc1cnn(C)c1[C@H]1CC[C@]2(CC1)CC(C)(C)CO2", "0.101 to 1 µM"],
  ["CNCCN(C)Cc1c[nH]nc1C1CCCC(COCCC(O)CO)C1 (centres unmarked)", "< 0.1 µM"]
]}

-- ask Report IC50 for CNCCN(C)Cc1c[nH]nc1C1CCC2(CCOC2)CC1 (centres unmarked) please.
-- reply < 0.1 µM

-- ask Name the recorded IC50 for CNCCN(C)Cc1c[nH]nc1[C@H]1CC[C@@]2(CCOC2)CC1 .
-- reply < 0.1 µM

-- ask Request the reported IC50 associated with CNCCN(C)Cc1c[nH]nc1C1CCC(C)(C)[C@H](OCC2CCOCC2)C1 (some centres unmarked)
-- reply < 0.1 µM

-- ask Reported IC50, compound CNCCN(C)Cc1c[nH]nc1[C@H]1CC[C@H](O)CC1 [Compound 227, trifluoroacetate] : ____
-- reply < 0.1 µM

-- ask # get_value(readout='IC50', item= CN(CCN)Cc1c[nH]nc1C1CCC2(CCCC2)CC1 )
-- reply < 0.1 µM

====

Experimental Target: full-length human PRMT1 isoform 1 (GST-tagged) (Homo sapiens, UniProt Q99873)
Sequence (Q99873 with tags, fused parts or gaps): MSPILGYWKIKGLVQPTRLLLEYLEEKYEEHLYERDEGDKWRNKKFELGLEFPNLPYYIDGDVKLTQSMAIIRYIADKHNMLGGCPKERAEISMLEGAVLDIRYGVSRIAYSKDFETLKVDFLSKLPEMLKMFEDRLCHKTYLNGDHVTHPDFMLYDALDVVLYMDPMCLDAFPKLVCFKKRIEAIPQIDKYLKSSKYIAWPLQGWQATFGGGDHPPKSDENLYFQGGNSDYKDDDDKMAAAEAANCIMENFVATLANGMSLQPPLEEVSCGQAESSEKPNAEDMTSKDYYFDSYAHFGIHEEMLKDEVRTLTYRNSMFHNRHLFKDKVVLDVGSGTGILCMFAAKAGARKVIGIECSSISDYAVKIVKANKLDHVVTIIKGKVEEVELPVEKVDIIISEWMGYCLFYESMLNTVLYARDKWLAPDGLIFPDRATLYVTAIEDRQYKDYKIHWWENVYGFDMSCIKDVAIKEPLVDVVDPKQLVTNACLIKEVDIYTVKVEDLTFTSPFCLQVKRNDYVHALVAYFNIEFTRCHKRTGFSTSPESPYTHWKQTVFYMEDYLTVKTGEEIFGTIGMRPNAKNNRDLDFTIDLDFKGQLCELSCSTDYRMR
Test Summary: PRMT1 Biochemical Assay (3H-SAM Flashplate, peptide substrate)
Condition: single experiment or average of multiple experiments
Test Readout: IC50 (nM)

{"columns": ["Compound", "Experimental Target", "Quantitative Readout"],
 "data": [
  ["CNCCN(C)Cc1c[nH]nc1C1CCC(=O)N(CCCOC)C1 (centres unmarked) [Compound 190]", "full-length human PRMT1 isoform 1 (GST-tagged) (Homo sapiens, UniProt Q99873)", 124],
  ["CNCCN(C)Cc1c[nH]nc1[C@H]1CC[C@@]2(CCCO2)CC1 [Compound 143]", "full-length human PRMT1 isoform 1 (GST-tagged) (Homo sapiens, UniProt Q99873)", 10.6]
]}

a. CNCCN(C)Cc1c[nH]nc1[C@H]1CC[C@@H](N(CCCOC)C(=O)CC(C)C)CC1 [Compound 242]
b. CNCCN(C)Cc1c[nH]nc1C1CCC2(CC1)CC(C)OC(C)C2 (centres unmarked) [Compound 63]
-- ask Among a and b , whose measured IC50 is the smaller figure? Output the label that corresponds to your choice.
-- reply b
(b: 9 nM, a: 28.3 nM)

====

Experimental Target: full-length human PRMT6 (Flag- and His-tagged) (Homo sapiens)
Test Summary: PRMT6 Biochemical Assay (3H-SAM Flashplate, peptide substrate)
Condition: single experiment or average of multiple experiments; read-out: Biochemical IC50 PRMT6
pIC50: −log10 of the molar value.
Test Readout: pIC50

{"columns": ["Compound", "Quantitative Readout"],
 "data": [
  ["CNCCN(C)Cc1c[nH]nc1[C@H]1CC[C@H](N(CCC(C)C)C(=O)CCCOC)CC1", 7.27]
]}

A. CNCCN(C)Cc1c[nH]nc1C1CCC(C)(C)[C@H](OCCCOC)C1 (stereo partly drawn)
B. CNCCN(C)Cc1c[nH]nc1[C@H]1CC[C@]2(CC1)CC(C)(C)CO2
-- ask Endpoint returns whichever of A and B has the numerically higher pIC50. Refer to your chosen entry by its label in the reply.
-- reply B
(B: 7.45, A: 7.13)
